Each entry below carries its recorded RORγt (FL) Reporter Assay B or C, % inhibition (value marked ***).
- test target: full-length human RORγt (Homo sapiens (Human), UniProt P51449)
- Sequence (P51449 other isoform, or with tags, fused parts or gaps): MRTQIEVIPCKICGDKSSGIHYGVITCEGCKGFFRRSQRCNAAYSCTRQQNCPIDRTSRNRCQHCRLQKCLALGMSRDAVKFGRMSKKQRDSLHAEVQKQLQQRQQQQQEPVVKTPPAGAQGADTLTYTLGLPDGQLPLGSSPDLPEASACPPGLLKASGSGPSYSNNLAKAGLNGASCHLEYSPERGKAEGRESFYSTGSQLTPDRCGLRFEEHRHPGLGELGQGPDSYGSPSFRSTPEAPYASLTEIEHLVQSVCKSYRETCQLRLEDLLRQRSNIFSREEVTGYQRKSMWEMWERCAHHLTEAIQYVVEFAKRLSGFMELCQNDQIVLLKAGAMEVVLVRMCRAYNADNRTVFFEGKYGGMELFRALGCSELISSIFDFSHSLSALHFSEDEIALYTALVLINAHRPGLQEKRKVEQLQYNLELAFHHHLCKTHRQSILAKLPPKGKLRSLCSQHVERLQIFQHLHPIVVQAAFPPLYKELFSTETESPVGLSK
- experimental protocol: RORγt (full-length human) reporter assay, Conditions B or C
- Format: cell-based
- study conditions: Conditions B or C; marked ***: footnote not given

Below, 6 compounds whose answers are already recorded.
INSERT INTO assay_data (compound, test_target, measured_value) VALUES
  ('C[C@H](Nc1cc(C(F)(F)F)c(-c2sc(C(=O)NCC(C)(C)O)nc2C(=O)N2CCC[C@@H]2C)cn1)C1CCC1 (relative stereo)', 'full-length human RORγt (Homo sapiens (Human), UniProt P51449)', '119*** %'),
  ('C[C@H]1CCCN1C(=O)c1nc(C(=O)NCC(C)(C)O)sc1-c1cnc(NC2(C(F)(F)F)CC2)cc1C(F)(F)F', 'full-length human RORγt (Homo sapiens (Human), UniProt P51449)', '94*** %'),
  ('CC[C@@H](Nc1cc(C(F)F)c(-c2sc(C(=O)N[C@H]3COC[C@@H]3O)nc2C(=O)N2CCC[C@@H]2C)cn1)C(F)(F)F', 'full-length human RORγt (Homo sapiens (Human), UniProt P51449)', '103*** %'),
  ('C[C@@H](Nc1cc(C(F)(F)F)c(-c2sc(C(=O)NCC(C)(C)O)nc2C(=O)N2CCC[C@@H]2C)cn1)C1CCC1 (relative stereo)', 'full-length human RORγt (Homo sapiens (Human), UniProt P51449)', '115*** %'),
  ('CC[C@H](Nc1cc(C(F)F)c(-c2sc(C(=O)N[C@@H](C)C(C)(C)O)nc2C(=O)N2CC(F)(F)C[C@@H]2C)cn1)C(F)(F)F', 'full-length human RORγt (Homo sapiens (Human), UniProt P51449)', '112*** %'),
  ('C[C@H](Nc1cc(C(F)(F)F)c(-c2sc(C(=O)N[C@@H]3COC[C@@H]3O)nc2C(=O)N2C3CCC2CC3)cn1)C(F)(F)F (single isomer, unassigned)', 'full-length human RORγt (Homo sapiens (Human), UniProt P51449)', '91*** %');

Please look at the following compound next.
INPUT: Query: RORγt (FL) Reporter Assay B or C, % inhibition (value marked ***); subject: C[C@H]1CC(F)(F)CN1C(=O)c1nc(C(=O)NCC(C)(C)O)sc1-c1cnc(NC(C)(C)C)cc1C(F)(F)F
OUTPUT: 110*** %

====

- test target: UniProtKB P51449
- experimental protocol: RORγt (full-length human) reporter assay, Conditions B or C
- Type: cell-based
- study conditions: RORγt (FL) Reporter Assay B or C, IC50
assay endpoint: IC50 (µM)
Give the value in µM but do not write µM after it.

# annotated cases, reported IC50 shown
INSERT INTO results (chemical_structure, measured_value) VALUES
  ('CC(C)(C)Nc1cc(C(F)F)c(-c2sc(C(=O)N[C@@H]3CCC[C@H]3O)nc2C(=O)N2C3CCC2CC3)cn1', 0.011),
  ('CC(C)(C)Nc1cc(C(F)F)c(-c2sc(C(=O)N[C@@H]3CC[C@@H](O)C3)nc2C(=O)N2C3CCC2CC3)cn1', 0.013);

With those in mind, consider the next compound.
INPUT: Recorded IC50 for O=C(N[C@@H]1COC[C@H]1O)c1nc(C(=O)N2C3CCC2CC3)c(-c2cnc(N[C@@H](C3CC3)C(F)(F)F)cc2C(F)F)s1 , please?
OUTPUT: 0.32

====

- test target: full-length human RORγt (Homo sapiens (Human))
- experimental protocol: RORγt (full-length human) reporter assay, Conditions B or C
- Type: cell-based
- study conditions: Conditions B or C; read-out: RORγt (FL) Reporter Assay B or C, IC50
assay endpoint: IC50 (nM)

[A] C[C@H]1CCCN1C(=O)c1nc(C(=O)NCC(C)(C)O)sc1-c1cnc(NC2CCCC2)cc1C(F)F [Example 42]
[B] C[C@H]1CC(F)(F)CN1C(=O)c1nc(C(=O)NCC(C)(C)O)sc1-c1cnc(NC2CCCC2)cc1C(F)F [Example 44]
INPUT: Looking only at measured IC50, which entry is lower, A or B ? Output the label that corresponds to your choice.
OUTPUT: B

====

- test target: UniProt P51449
- experimental protocol: RORγt (full-length human) reporter assay, Conditions B or C
- Assay type: cell-based
- study conditions: Conditions B or C; marked *: footnote not given
assay endpoint: RORγt (FL) Reporter Assay B or C, % inhibition (value marked *)

INPUT: Sample CC(C)(O)CNC(=O)c1nc(C(=O)N2C3CCC2CC3)c(-c2cnc(NCC3(C(F)(F)F)CCC3)cc2C(F)(F)F)s1 — what was its RORγt (FL) Reporter Assay B or C, % inhibition (value marked *)?
OUTPUT: 108* %

INPUT: I have this molecule here, C[C@H]1CCCN1C(=O)c1nc(C(=O)NCC(C)(C)O)sc1-c1cnc(NC2CCCCC2)c(C#N)c1 , and I need its recorded RORγt (FL) Reporter Assay B or C, % inhibition (value marked *).
OUTPUT: 98* %

INPUT: # query: RORγt (FL) Reporter Assay B or C, % inhibition (value marked *) of entry C[C@H](Nc1cc(C(F)F)c(-c2sc(C(=O)NCC(C)(C)O)nc2C(=O)N2C3CCC2CC3)cn1)C(F)(F)F
OUTPUT: 109* %

INPUT: Give its RORγt (FL) Reporter Assay B or C, % inhibition (value marked *) value. Item: C[C@H](NC(=O)c1nc(C(=O)N2C3CCC2CC3)c(-c2cnc(NC3(C)CCC3)cc2C(F)F)s1)C(C)(C)O
OUTPUT: 101* %

INPUT: # RORγt (FL) Reporter Assay B or C, % inhibition (value marked *) lookup, item CC(C)(O)CNC(=O)c1nc(C(=O)N2C3CCC2CC3)c(-c2cnc(NC3(C(F)(F)F)CCC3)cc2C(F)(F)F)s1
OUTPUT: 108* %

====

- test target: full-length human RORγt (Homo sapiens (Human))
- experimental protocol: RORγt (full-length human) reporter assay, Conditions B or C
- Type: cell-based
- study conditions: read-out: RORγt (FL) Reporter Assay B or C, % inhibition @ 6 μM, Conditions B or C; @ 6 μM
assay endpoint: inhibition at 6 µM (%)

INSERT INTO measurements (compound, assay_endpoint, endpoint_unit, measured_value) VALUES
  ('C[C@H]1CCCCN1C(=O)c1nc(C(=O)NCC(C)(C)O)sc1-c1cnc(NC2CCCCC2)cc1C1CC1 [Example 76]', 'inhibition at 6 µM', '%', 108),
  ('C[C@H](Nc1cc(C(F)F)c(-c2sc(C(=O)NCC(C)(C)O)nc2C(=O)N2CCCC[C@@H]2C)cn1)C1CC1 [Example 37]', 'inhibition at 6 µM', '%', 92.2),
  ('C[C@H](Nc1cc(C(F)(F)F)c(-c2sc(C(=O)NCC(C)(C)O)nc2C(=O)N2CCC[C@@H]2C)cn1)C1CC1 [Example 40]', 'inhibition at 6 µM', '%', 102),
  ('C[C@H]1CCCCN1C(=O)c1nc(C(=O)NCC(C)(C)O)sc1-c1cnc(NC2CCCCC2)cc1C(F)F [Example 34]', 'inhibition at 6 µM', '%', 105),
  ('C[C@H]1CCCN1C(=O)c1nc(C(=O)NCC(C)(C)O)sc1-c1cnc(NC2CCCC2)cc1C(F)F [Example 42]', 'inhibition at 6 µM', '%', 111),
  ('C[C@H](Nc1cc(C(F)(F)F)c(-c2sc(C(=O)NCC(C)(C)O)nc2C(=O)N2CCC(F)CC2)cn1)C1CC1 [Example 30]', 'inhibition at 6 µM', '%', 104),
  ('CC(C)(O)CNC(=O)c1nc(C(=O)N2CCC(F)CC2)c(-c2cnc(NC3CCCCC3(F)F)cc2C(F)(F)F)s1 (centres unmarked) [Example 26]', 'inhibition at 6 µM', '%', 111),
  ('C[C@H]1CCCCN1C(=O)c1nc(C(=O)NCC(C)(C)O)sc1-c1cnc(N[C@H]2CCCCC2(F)F)cc1C(F)(F)F (relative stereo) [Example 32]', 'inhibition at 6 µM', '%', 109),
  ('C[C@H]1CCCCN1C(=O)c1nc(C(=O)NCC(C)(C)O)sc1-c1cnc(N[C@H](C)C(F)(F)F)cc1C(F)(F)F [Example 45]', 'inhibition at 6 µM', '%', 111),
  ('C[C@H]1CCCCN1C(=O)c1nc(C(=O)NCC(C)(C)O)sc1-c1cnc(NC2CCCC2)cc1C(F)F [Example 41]', 'inhibition at 6 µM', '%', 103),
  ('C[C@@H](Nc1cc(C(F)(F)F)c(-c2sc(C(=O)NCC(C)(C)O)nc2C(=O)N2CCC(F)CC2)cn1)C1CC1 [Example 29]', 'inhibition at 6 µM', '%', 105),
  ('C[C@H]1CCN1C(=O)c1nc(C(=O)NCC(C)(C)O)sc1-c1cnc(NC2CCCCC2)cc1C(F)(F)F [Example 25]', 'inhibition at 6 µM', '%', 102),
  ('C[C@H]1CC(F)(F)CN1C(=O)c1nc(C(=O)NCC(C)(C)O)sc1-c1cnc(NC2CCCC2)cc1C(F)F [Example 44]', 'inhibition at 6 µM', '%', 111),
  ('C[C@H]1CCCN1C(=O)c1nc(C(=O)NCC(C)(C)O)sc1-c1cnc(N[C@H]2CCCCC2(F)F)cc1C(F)(F)F (relative stereo) [Example 36]', 'inhibition at 6 µM', '%', 116);

Sourced from patent US10975068B2
